These measurements were taken from patent US11129827B2.

- Tested target: MAGL (Homo sapiens (Human))
- Protocol summary: biochemical
- Condition: read-out: MAGL (human) IC50
pIC50: −log10 of the molar value.
Measure name: pIC50

Would you please look over these solved cases?
compound_structure=C[C@@H]1CN(Cc2cccc(OC(F)(F)F)c2)CCN1C(=O)Oc1cncc(C(N)=O)c1 reported_result="6.00 to 7.00"
compound_structure=O=C(Oc1cncc(C(F)(F)F)c1)N1CCC2(CC1)CC(Oc1cccc(COc3ccc(Cl)cc3)c1)C2 reported_result="6.00 to 7.00"
compound_structure=O=C(Oc1cncc(C(F)(F)F)c1)N1CCN(Cc2cc(Cl)ccc2C(F)(F)F)CC1 reported_result="6.00 to 7.00"

Kindly note the recorded pIC50 for C[C@@H]1CN(Cc2cc(Cl)cc(C(F)(F)F)c2)CCN1C(=O)Oc1cncc(C(N)=O)c1 , which is 6.00 to 7.00

Kindly note the recorded pIC50 for C[C@@H]1CN(Cc2cccc(C(F)(F)F)c2Cl)CCN1C(=O)Oc1cncc(C(N)=O)c1 , which is > 7.00

----------
- Tested target: UniProt:O00519
- Protocol summary: biochemical
- Condition: read-out: FAAH (human) % inh. 1 μM
Measure name: inhibition at 1 µM

Would you please look over these solved cases?
compound_structure=O=C(Oc1cncc(C(F)(F)F)c1)N1CCC2(CC1)CN(Cc1cc(Cl)cc(Oc3nc4ccccc4s3)c1)C2 measure_name="inhibition at 1 µM" reported_result="> 75%"
compound_structure=O=C(Oc1cncc(C(F)(F)F)c1)N1CCC2(CC1)CN(Cc1cccc(Oc3ccc(C(F)(F)F)cn3)c1)C2 measure_name="inhibition at 1 µM" reported_result="> 75%"

Continue with the compound presented below.
Kindly note the recorded inhibition at 1 µM for O=C(Oc1cncc(C(F)(F)F)c1)N1CCC2(CC1)CN(Cc1cccc(Oc3cccc(C(F)(F)F)n3)c1)C2 , which is 50 to 75%

----------
- Tested target: FAAH (Homo sapiens (Human), UniProt O00519)
- Protocol summary: biochemical
- Condition: read-out: FAAH (human) % inh. 1 μM
Measure name: inhibition at 1 µM

Would you please look over these solved cases?
compound_structure=O=C(Oc1cncc(C(F)(F)F)c1)N1CCC2(CC1)CC(Oc1cccc(C(F)(F)F)c1)C2 reported_result="> 75%"
compound_structure=O=C(Oc1cncc(C(F)(F)F)c1)N1CCC2(CC1)CN(Cc1cccc(Oc3cc(Cl)cc(Cl)c3)c1)C2 reported_result="> 75%"
compound_structure=O=C(Oc1cncc(C(F)(F)F)c1)N1CCC2(CC1)CN(Cc1cccc(Oc3ccccc3)c1Cl)C2 reported_result="> 75%"

Continue with the compound presented below.
Kindly note the recorded inhibition at 1 µM for O=C(Oc1cncc(C(F)(F)F)c1)N1CCC2(CC1)CN(Cc1ccc(Cl)c(Oc3ccccc3)c1Cl)C2 , which is 50 to 75%

----------
- Tested target: MAGL (Mus musculus (Mouse))
- Protocol summary: in vivo
- Condition: po, read-out: MAGL (mouse) % inh. 5 mg/kg
This section presents molecules with their documented inhibition at 5 mg/kg values.

Would you please look over these solved cases?
molecule="O=C(Oc1cncc(C(F)(F)F)c1)N1CCC2(CC1)CN(Cc1cccc(Oc3nc4ccccc4s3)c1)C2 [Example 7]" measure_name="inhibition at 5 mg/kg" reported_result="25 to 50%"
molecule="CC(=O)Nc1cncc(OC(=O)N2CCN(Cc3ccc(Cl)c(OC(C)C)c3)CC2)c1 [Example 52]" measure_name="inhibition at 5 mg/kg" reported_result="0 to 25%"
molecule="O=C(Oc1cncc(C(F)(F)F)c1)N1CCC2(CC1)CN(Cc1cccc(Oc3cncc(C(F)(F)F)c3)c1)C2 [Example 38]" measure_name="inhibition at 5 mg/kg" reported_result="0 to 25%"
molecule="CC(C)Oc1ccc(CN2CCN(C(=O)Oc3cncc(C(N)=O)c3)CC2)c(OC(F)(F)F)c1 [Example 18]" measure_name="inhibition at 5 mg/kg" reported_result="> 75%"
molecule="C[C@@H]1CN(Cc2cc(Cl)cc(Oc3ncccn3)c2)CCN1C(=O)Oc1cncc(C#N)c1 [Example 86]" measure_name="inhibition at 5 mg/kg" reported_result="> 75%"
molecule="C[C@@H]1CN(Cc2cc(F)cc(C(F)(F)F)c2)CCN1C(=O)Oc1cncc(C(N)=O)c1 [Example 20]" measure_name="inhibition at 5 mg/kg" reported_result="> 75%"
molecule="NC(=O)c1cncc(OC(=O)N2CCC3(CCN(Cc4cc(Cl)ccc4C(F)(F)F)C3)CC2)c1 [Example 4]" measure_name="inhibition at 5 mg/kg" reported_result="> 75%"
molecule="C[C@@H]1CN(Cc2cccc(OC(F)(F)F)c2)CCN1C(=O)Oc1cncc(C(N)=O)c1 [Example 74]" measure_name="inhibition at 5 mg/kg" reported_result="> 75%"
molecule="NC(=O)c1cncc(OC(=O)N2CCC3(CCN(Cc4ccc(Cl)c(Cl)c4)C3)CC2)c1 [Example 36]" measure_name="inhibition at 5 mg/kg" reported_result="25 to 50%"
molecule="C[C@@H]1CN(Cc2cc(Cl)cc(C(F)(F)F)c2)CCN1C(=O)Oc1cncc(C(N)=O)c1 [Example 65]" measure_name="inhibition at 5 mg/kg" reported_result="> 75%"

Continue with the molecule presented below.
Kindly note the recorded inhibition at 5 mg/kg for CC(C)Oc1cc(CN2CCN(C(=O)Oc3cncc(NS(C)(=O)=O)c3)CC2)ccc1Cl [Example 15] , which is 0 to 25%
